Source of measurements: patent US20090280138A1

- assay target: T1, MHC class I molecule B*0702 (biotin (bound to streptavidin-coated plate))
- T1 construct: iTopia monomer stripped of placeholder peptide and b2M, then reconstituted with test peptide and fresh b2M; also called B7; HLA-B7
- measurement notes: iTopia peptide binding assay
# binding, % of positive control peptide annotations

Below: 2 binders and their reported binding, % of positive control peptide.
PWVCDCHMA [5T4 9-mer peptide 148 (PWVCDCHMA)]
0 % of positive control
DCDPILPPS [5T4 9-mer peptide 172 (DCDPILPPS)]
0 % of positive control

Quick check: binding, % of positive control peptide of EGYHYRYEI [5T4 9-mer peptide 199 (EGYHYRYEI)] ?
4 % of positive control
